# assay-system: EPHB1 (UniProt P54762)
# Sequence (P54762 whole entry, looked up): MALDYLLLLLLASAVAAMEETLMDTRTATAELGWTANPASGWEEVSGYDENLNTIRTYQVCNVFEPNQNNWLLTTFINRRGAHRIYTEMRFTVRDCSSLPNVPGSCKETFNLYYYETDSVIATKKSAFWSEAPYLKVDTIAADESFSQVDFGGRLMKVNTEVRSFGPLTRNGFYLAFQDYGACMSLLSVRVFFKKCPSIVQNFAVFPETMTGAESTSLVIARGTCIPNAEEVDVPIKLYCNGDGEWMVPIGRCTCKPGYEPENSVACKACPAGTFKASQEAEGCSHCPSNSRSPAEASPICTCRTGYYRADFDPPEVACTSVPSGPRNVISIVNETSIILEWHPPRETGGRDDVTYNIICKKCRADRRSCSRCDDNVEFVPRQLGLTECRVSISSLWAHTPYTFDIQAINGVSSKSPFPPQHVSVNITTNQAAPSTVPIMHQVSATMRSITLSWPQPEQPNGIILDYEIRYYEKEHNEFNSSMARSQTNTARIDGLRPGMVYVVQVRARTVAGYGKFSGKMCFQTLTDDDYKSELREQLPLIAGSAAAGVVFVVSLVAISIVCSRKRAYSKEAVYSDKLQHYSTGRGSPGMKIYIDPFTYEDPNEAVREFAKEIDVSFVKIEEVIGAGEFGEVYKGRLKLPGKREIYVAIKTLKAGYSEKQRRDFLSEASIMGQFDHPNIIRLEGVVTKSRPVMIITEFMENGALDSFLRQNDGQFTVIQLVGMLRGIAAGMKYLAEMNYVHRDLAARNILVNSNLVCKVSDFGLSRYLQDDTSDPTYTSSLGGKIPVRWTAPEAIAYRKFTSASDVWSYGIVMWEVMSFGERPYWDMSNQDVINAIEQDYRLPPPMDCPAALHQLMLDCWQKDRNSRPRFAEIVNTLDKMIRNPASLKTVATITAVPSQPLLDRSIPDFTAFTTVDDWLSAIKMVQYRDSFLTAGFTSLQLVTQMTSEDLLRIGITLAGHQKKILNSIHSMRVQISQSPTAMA
# experiment-summary: phosphorylation enrichment, bacterial display (enrichment ratio); higher = better substrate or ligand; peptides without Tyr show the background;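 note: 11-residue human phosphosite peptides and single-mutation variants displayed on the E. coli surface, counted by deep sequencing, each peptide's frequency after selection divided by its frequency in the unselected input library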;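 note: frequency after pTyr selection over input frequency; kinase dosed for 20-30% of maximal phosphorylation in three min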
result-type: phosphorylation enrichment

Problem: Look up phosphorylation enrichment: PQEVTYAQLDH [KIR3DL2_Y398]
Result: 1.3

Problem: Another sequence: SRDPFYEMLTA [CYTH1_Y382_A386T]
Result: 4.93

Problem: Another sequence: EKLIQYCQSKG [AKR1B1_Y199]
Result: 0.487

Problem: Another sequence: LNCIFYKDQTG [RS1_Y166_W163C_YF]
Result: 1.1

Problem: Another sequence: GTSLIYWILFT [G6PC3_Y214_T216I]
Result: 1

Problem: Another sequence: TNGFTCGSSHQ [MANEA_Y331_Y331C]
Result: 0.451

Problem: Another sequence: FLAVGYHKPHI [IDS_Y225]
Result: 0.356
